# log10 of IC50 per entry
Target: 5-LOX (Homo sapiens)
Test: 5-LOX fluorescent assay (in vitro lipoxygenase inhibition)
Format: biochemical
Details: recombinant 5-LOX cell lysate, 20 μM AA, DHR123 fluorescence; several values in a cell = repeat determinations; read-out: IC50 (μM) values for in vitro lipoxygenase inhibition, 5-LOX
Hello, just confirming the data are log10 of IC50 with units of µM.

The examples below pair each entry with its known result.
>>> reported_measurement("Fc1ccc(Nc2ccc(NCCn3cncn3)cn2)cc1")
-0.20
>>> reported_measurement("Fc1ccc(CNc2ccc(NCCn3cncn3)c(-c3cccc4cc[nH]c34)c2)cc1")
-1.30
>>> reported_measurement("Fc1cc(Nc2ccccc2Cl)ccc1NCC1(Cn2cncn2)COC1")
-0.46
>>> reported_measurement("CCOC(=O)c1ccc(Nc2cccc(Nc3ccccc3)c2OCCn2cncn2)cc1")
0.52
>>> reported_measurement("O=C(CCn1cncn1)Nc1cc(Nc2ccccc2)ccc1-c1ccccc1")
0.37
>>> reported_measurement("N#Cc1ccc(-c2ccc(Nc3ccccc3)cc2NCCn2cncn2)s1")
-0.72

Which log10 of IC50 value is on record for "Fc1ccc(Nc2ccc(NCC3(CN4CCOCC4)COC3)c(C(F)(F)F)c2)cc1" ? -1.22

Also, "COc1ccccc1-c1ccc(Nc2ccccc2)cc1NCCn1cncn1" please. -0.40

Then what about the compound c1ccc(Nc2ccc(C3CCCO3)c(NCCn3cncn3)c2)cc1 (stereo not drawn) ? -0.12

Consider next the compound "CN(C)CCCc1c(NCc2ccc(F)cc2)cccc1-c1cccc2c1NCC2" in the same way. -0.51

Then what about the compound "Fc1ccc(Nc2ccc(NCC3(Cn4cncn4)COC3)c(C(F)(F)F)c2)cc1" ? -1.10

Moving on to the next compound: "Cn1cc(-c2ccc(Nc3ccccc3)cc2NCCn2cncn2)cn1" 0.62

Note, next up: "Cc1cccc(C)c1-c1ccc(Nc2ccccc2)cc1NCCn1cncn1" -0.66

Try this compound next: "Cc1noc(C)c1-c1ccc(Nc2ccccc2)cc1NCCn1cncn1" -0.08

Try the compound "Fc1ccc(CNc2cccc(NCCn3cncn3)n2)cc1" 0.20

Next record, please: "c1ccc(Nc2cccc(-c3ccccc3)c2NCCn2cncn2)cc1" -0.15

Here is the next compound: "CN(C)CC1(CNc2cc(Nc3ccc(F)cc3)ccc2-c2ccccc2)COC1" -0.80

For "CN(CCn1cncn1)c1cccc(Nc2ccc(F)cc2)c1" then? 0.04

Input "FC(F)(F)c1cc(NC2(c3ccccc3)COC2)ccc1NCCN1CCOCC1" -0.24

Next entry: "c1ccc(Nc2cnc(-c3ccccc3)c(NCCn3cncn3)c2)cc1" 0.35

Repeat for the following compound: "CN(C)CCCc1cc(Nc2ccc(F)cc2Cl)c(F)cc1Nc1ccc(F)cc1Cl" -0.17

What do we get for "COc1ccc(CNc2cccc(Nc3ccccc3)c2OCCN(C)C)cc1" ? 0.12

---

Biological target: 12-LOX (Homo sapiens, UniProt P18054)
Sequence (P18054 whole entry): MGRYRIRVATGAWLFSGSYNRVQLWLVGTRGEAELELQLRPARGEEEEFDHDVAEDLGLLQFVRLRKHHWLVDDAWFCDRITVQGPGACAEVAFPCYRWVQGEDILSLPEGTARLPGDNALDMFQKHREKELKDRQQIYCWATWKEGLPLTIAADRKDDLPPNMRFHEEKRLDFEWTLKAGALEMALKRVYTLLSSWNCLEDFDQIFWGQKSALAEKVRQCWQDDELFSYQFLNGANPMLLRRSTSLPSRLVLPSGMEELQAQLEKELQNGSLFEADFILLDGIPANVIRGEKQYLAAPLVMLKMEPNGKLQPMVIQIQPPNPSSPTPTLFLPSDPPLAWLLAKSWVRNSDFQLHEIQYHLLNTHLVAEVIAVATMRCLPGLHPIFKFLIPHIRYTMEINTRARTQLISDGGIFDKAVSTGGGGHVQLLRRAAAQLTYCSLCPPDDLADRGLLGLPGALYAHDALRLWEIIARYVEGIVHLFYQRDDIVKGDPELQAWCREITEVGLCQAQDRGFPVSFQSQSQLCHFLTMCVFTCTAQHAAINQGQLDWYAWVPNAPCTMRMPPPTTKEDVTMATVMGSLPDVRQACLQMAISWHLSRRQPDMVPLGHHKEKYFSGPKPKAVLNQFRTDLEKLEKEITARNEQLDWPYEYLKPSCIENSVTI
Assay: 12-LOX fluorescent assay (in vitro lipoxygenase inhibition)
Format: biochemical
Conditions: 100 nM recombinant 12-LOX, 20 μM AA, DHR123 fluorescence; several values in a cell = repeat determinations; read-out: IC50 (μM) values for in vitro lipoxygenase inhibition, 12-LOX
Description: 12-LOX/15-LOX Fluorescent Assay The enzyme assay (100 ul) contained 50 mM Tris, pH 7.5, 0.05% Tween-20, 20 μM AA/LA, 1 μM DHR123, and 100 nM recombinant 12-LOX enzyme/50 nM recombinant 15-LOX enzyme. […] Percent inhibition was calculated for each compound dose for IC50 curve fitting using 4 Parameter Logistic Model or Sigmoidal Dose-Response Model.
Listing of recorded log10 IC50 by entry.
A value of 2 here means IC50 of 100 in µM, since values are log10.

Dear colleague, I am looking for the recorded log10 IC50 of the following compound: "CN(C)CCCc1ccc(Nc2ccccc2Cl)c(Nc2ccccc2Cl)c1" -0.49

// repeat for "CN(C)CCCc1cc(Nc2ccc(F)cc2Cl)c(F)cc1Nc1ccc(F)cc1Cl" and report -0.29

Same for "FC1(F)CCC(CNc2cccc(NCCn3cncn3)n2)CC1" -0.49

And for "Fc1ccc(CNc2ccc(NCCn3cncn3)c(-c3cccc4cc[nH]c34)c2)cc1" ? -1.52

---

Molecular target: 12-LOX (Homo sapiens, UniProt P18054)
Test: 12-LOX fluorescent assay (in vitro lipoxygenase inhibition)
Type: biochemical
Conditions: 100 nM recombinant 12-LOX, 20 μM AA, DHR123 fluorescence; several values in a cell = repeat determinations; read-out: IC50 (μM) values for in vitro lipoxygenase inhibition, 12-LOX
Reported Endpoint: IC50 (µM)
Give the value in µM but do not write µM after it.

Recorded IC50, per entry:
>>> reported_measurement("c1cc(NCC2(Cn3cncn3)COC2)cc(NC2CCCCC2)c1")
0.36
>>> reported_measurement("OCc1ccccc1-c1ccc(Nc2ccccc2)cc1NCCn1cncn1")
0.33
>>> reported_measurement("FC(F)(F)C(Nc1ccc(NCCn2cncn2)c(-c2ccccc2)c1)c1ccccc1 (stereo not drawn)")
0.06
>>> reported_measurement("Cn1nccc1-c1ccc(Nc2ccccc2)cc1NCCn1cncn1")
0.93
>>> reported_measurement("Fc1ccc(Nc2ccc(NCC3(Cn4cncn4)COC3)c(C(F)(F)F)c2)c(Cl)c1")
0.28
>>> reported_measurement("CN(C)CC1(CNc2cc(Nc3ccc(F)cc3)ccc2-c2ccccc2)COC1")
0.18
>>> reported_measurement("Fc1ccc(Nc2ccc(NCC3(Cn4cncn4)COC3)c(C(F)(F)F)c2)cc1")
0.06
>>> reported_measurement("CN(C)CCCNc1ccc(NC(c2ccccc2)C(F)(F)F)cc1F (stereo not drawn)")
0.21

// next item, IC50 requested
What IC50 value was documented for this molecule, "O=C(Nc1ccc(-c2ccccc2)c(NCCn2cncn2)c1)c1ccccc1" ? 20.8

---

# IC50 annotations
Target: 12-LOX (Homo sapiens)
Experiment: 12-LOX fluorescent assay (in vitro lipoxygenase inhibition)
Assay type: biochemical
Conditions: 100 nM recombinant 12-LOX, 20 μM AA, DHR123 fluorescence; several values in a cell = repeat determinations; read-out: IC50 (μM) values for in vitro lipoxygenase inhibition, 12-LOX
Provide only the numeric value, understood in µM.

Before answering, review these 3 worked examples.
>>> reported_measurement("Fc1cc(Nc2ccccc2Cl)ccc1NCC1(Cn2cncn2)COC1 [SS20308-0313-01]")
0.11
>>> reported_measurement("O=C(CCn1cncn1)Nc1cc(Nc2ccccc2)ccc1-c1ccccc1 [SS20308-0134-01]")
1.49
>>> reported_measurement("CN(C)CCOc1c(NCc2ccccc2)cccc1Nc1ncccc1Cl [SS20308-0071-01]")
4.9

Name the recorded IC50 for Fc1ccc(Nc2ccc(NCCn3cncn3)cn2)cc1 [SS20308-0248-01] . 0.1

Same for N#Cc1ccc(-c2ccc(Nc3ccccc3)cc2NCCn2cncn2)s1 [SS20308-0194-01] 0.13

---

Molecular target: 5-LOX (Homo sapiens, UniProt P09917)
Sequence (P09917 whole entry): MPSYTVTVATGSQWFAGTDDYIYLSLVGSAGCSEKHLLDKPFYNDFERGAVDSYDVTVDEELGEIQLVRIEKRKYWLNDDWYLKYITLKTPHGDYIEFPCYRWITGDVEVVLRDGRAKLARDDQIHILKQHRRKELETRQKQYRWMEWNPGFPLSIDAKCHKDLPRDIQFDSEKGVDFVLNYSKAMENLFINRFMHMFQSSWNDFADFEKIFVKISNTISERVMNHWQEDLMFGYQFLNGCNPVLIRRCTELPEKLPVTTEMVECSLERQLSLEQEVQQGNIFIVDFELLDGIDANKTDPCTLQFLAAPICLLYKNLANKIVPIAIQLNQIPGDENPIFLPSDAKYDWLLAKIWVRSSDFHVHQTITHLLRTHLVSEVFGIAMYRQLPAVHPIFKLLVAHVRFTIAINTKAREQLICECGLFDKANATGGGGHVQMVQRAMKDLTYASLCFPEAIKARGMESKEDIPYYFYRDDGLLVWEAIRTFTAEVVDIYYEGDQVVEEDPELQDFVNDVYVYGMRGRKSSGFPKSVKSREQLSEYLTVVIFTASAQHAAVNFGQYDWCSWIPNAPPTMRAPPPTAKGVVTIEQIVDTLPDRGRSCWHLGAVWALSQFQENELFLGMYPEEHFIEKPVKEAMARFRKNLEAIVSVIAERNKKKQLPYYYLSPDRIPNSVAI
Assay: 5-LOX fluorescent assay (in vitro lipoxygenase inhibition)
Format: biochemical
Details: recombinant 5-LOX cell lysate, 20 μM AA, DHR123 fluorescence; several values in a cell = repeat determinations; read-out: IC50 (μM) values for in vitro lipoxygenase inhibition, 5-LOX
Reported Endpoint: IC50 (µM)
Give a bare numeral; the unit µM is implied.

Answered examples (5):
>>> reported_measurement("CN(C)CCCNc1ccc(NC(c2ccccc2)C(F)(F)F)cc1F (stereo not shown)")
0.25
>>> reported_measurement("FC(F)(F)c1cc(Nc2ccc(Cl)cc2)ccc1NCC1(Cn2cncn2)COC1")
0.05
>>> reported_measurement("Cc1ccc(NCc2ccc(F)cc2)cc1NCCCn1cncn1")
0.28
>>> reported_measurement("c1ccc(CNc2ccc(NCCn3cncn3)c(-c3ccccc3)n2)cc1")
0.16
>>> reported_measurement("c1ccc(CNc2ccc(NCCn3cncn3)c(-c3cccs3)n2)cc1")
0.02

What does the record list as IC50 for "Clc1ccc(-c2ccc(Nc3ccccc3)cc2NCCn2cncn2)cc1" ? 0.17

---

Target: 5-LOX (Homo sapiens, UniProt P09917)
Experiment: 5-LOX fluorescent assay (in vitro lipoxygenase inhibition)
Format: biochemical
Conditions: recombinant 5-LOX cell lysate, 20 μM AA, DHR123 fluorescence; several values in a cell = repeat determinations; read-out: IC50 (μM) values for in vitro lipoxygenase inhibition, 5-LOX
// NB: equality with 0.2 µM counts as False; only IC50 strictly below is True

>>> classification("OCCc1ccccc1-c1ccc(Nc2ccccc2)cc1NCCn1cncn1 [SS20308-0149-01]")
"False"

Does the reported IC50 of c1ccc(Nc2ccc(-c3ccccc3)c(OCCn3cncn3)c2)cc1 [SS20308-0132-01] stay below 0.2 µM? False

Try the molecule CN(C)CCCc1ccc(Nc2ccccc2Cl)c(Nc2ccccc2Cl)c1 [SS20308-0198-01] False

Also need COc1ccc(CNc2ccc3c(-c4ccccc4)cc(=O)[nH]c3c2OCCN(C)C)cc1 [SS20308-0053-01] , thanks. False

Now the molecule c1ccc(CNc2ccc(NCCn3cncn3)c(-c3cccnc3)c2)cc1 [SS20308-0216-01] True

How about this molecule: c1cc(NCC2(Cn3cncn3)COC2)cc(NC2CCCCC2)c1 [SS20308-0241-01] False

Item: FC1(F)CCC(CNc2ccc(NCCn3cncn3)cn2)CC1 [SS20308-0247-01] False
